Assay procedure: NCI Yeast Anticancer Drug Screen. Data for the bub3 strain (AID 167)
Details: S. cerevisiae bub3 mutant strain, at 50.0 µM, hits give high values
Compounds without any hit were thinned out: in the full panel of roughly 79,000, 15% have a hit.
Recorded growth inhibition for the following compounds
Numbers only; they are read as %.

For orientation, consider the following solved cases.
Cc1ccc(S(=O)(=O)N/N=C2/C(=N/NS(=O)(=O)c3ccc(C)cc3)c3cccc4cccc2c34)cc1; 14.8
CN=C1c2ccccc2C(=O)c2c1c(O)n(C)c2O; -2.75
CC(=O)[C@H]1CC[C@H]2[C@@H]3CC=C4C=CCC[C@]4(C)[C@H]3CC[C@]12C; 8.4

Entry `CSc1ccc(C2=CCCCC2)cc1` — recorded growth inhibition = 0.95

Entry `Cc1cccc(C(=O)c2ccc(C)cc2C)c1` — recorded growth inhibition = -0.7

Entry `CC(=O)N1c2ccccc2S(=O)(=O)c2ccccc21` — recorded growth inhibition = 2.05

Entry NC1C(=O)Nc2ccccc21 (configuration not stated) — recorded growth inhibition = 8.35

Entry NC(C(=O)O)C(C(F)(F)F)C(F)(F)F (configuration not stated) — recorded growth inhibition = -15.7

----------
Assay procedure: NCI Yeast Anticancer Drug Screen. Data for the bub3 strain (AID 167)
Details: S. cerevisiae bub3 mutant strain, at 50.0 µM, hits give high values
About 79,000 compounds went through this panel and 15% of them were active in at least one assay; those are over-represented in the sample as a whole.
Recorded growth inhibition for the following compounds
Numbers only; they are read as %.

For orientation, consider the following solved cases.
CN(C)c1nc(S(C)(=O)=O)nc2nc(S(C)(=O)=O)[nH]c12; 1.95
[O-][n+]1ccccc1/C=C/c1cccc[n+]1[O-]; -0.85

Entry `COc1ccc(CC[n+]2cccc(/C(=N/O)c3ccccc3)c2)cc1OC` — recorded growth inhibition = 8.25

Entry `O=C(O)/C(Cc1ccc([N+](=O)[O-])cc1)=N\O` — recorded growth inhibition = 17.4

----------
Recorded growth inhibition for the following molecules
Assay procedure: NCI Yeast Anticancer Drug Screen. Data for the mec2-1 strain (AID 157)
Details: S. cerevisiae mec2-1 strain, at 50.0 µM, hits give high values
Description: Growth inhibition of yeast strains with defined genetic alterations is measured as a screen for potential anti-cancer activity. Selected strains with alterations in DNA damage repair or cell cycle control were exposed to compounds and growth inhibition was measured relative to vehicle treated controls. The strain used in this assay is mec2-1
This is part of a sample that, as a whole, favours compounds with a hit. Of some 79,000 tested, about 15% had one in any assay.
Numbers only; they are read as %.

For orientation, consider the following solved cases.
CCOC(=O)C1=C(NC(=O)C(c2ccccc2)c2ccccc2)OCC1; 4.75
CCCOc1ccc(C(=O)C(C(c2ccccc2)N2CCOCC2)N2CCOCC2)cc1 (stereo unspecified); 22.5
CCC1(C)CC(C)(C)c2ccc(C)cc21 (stereo unspecified); -2.75
c1ccc(Sc2nc(Sc3ccccc3)nc(Sc3ccccc3)n2)cc1; -16.4
O=C(NCC1CC1)c1ccccc1NC(=O)c1cc2ccccc2oc1=O; -8.25

Entry `c1ccc2oc(C34OC5CC(CC(C5)O3)O4)nc2c1` — recorded growth inhibition = 13.2

Entry COc1ccc(-c2c3c(n(C4OC(COC(C)=O)C(OC(C)=O)C(OC(C)=O)C4OC(C)=O)c(=S)c2C#N)CCCC3)cc1 (stereo unspecified) — recorded growth inhibition = -13.2

Entry `Fc1ccccc1/C=C/c1cnnc2ccccc12` — recorded growth inhibition = 11.1

Entry O=C(Nc1ccn(C2CCC(CO)O2)c(=O)n1)c1ccccc1 (stereo unspecified) — recorded growth inhibition = -3.05

Source listed as PubChem BioAssay (NCI).
